# system: Human CDK7/CycH/MAT1 (Homo sapiens (Human), UniProt P50613)
# Sequence (P50613 whole entry): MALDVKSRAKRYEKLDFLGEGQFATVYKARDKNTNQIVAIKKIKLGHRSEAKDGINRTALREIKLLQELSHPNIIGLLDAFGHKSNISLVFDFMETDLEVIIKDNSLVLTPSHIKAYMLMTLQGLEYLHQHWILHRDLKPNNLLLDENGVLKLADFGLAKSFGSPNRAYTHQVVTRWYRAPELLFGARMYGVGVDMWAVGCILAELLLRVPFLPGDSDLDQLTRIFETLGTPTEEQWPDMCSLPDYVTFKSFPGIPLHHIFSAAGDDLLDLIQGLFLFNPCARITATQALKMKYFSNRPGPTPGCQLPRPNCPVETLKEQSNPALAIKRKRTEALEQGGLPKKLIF
# Sequence (P51946 whole entry partner): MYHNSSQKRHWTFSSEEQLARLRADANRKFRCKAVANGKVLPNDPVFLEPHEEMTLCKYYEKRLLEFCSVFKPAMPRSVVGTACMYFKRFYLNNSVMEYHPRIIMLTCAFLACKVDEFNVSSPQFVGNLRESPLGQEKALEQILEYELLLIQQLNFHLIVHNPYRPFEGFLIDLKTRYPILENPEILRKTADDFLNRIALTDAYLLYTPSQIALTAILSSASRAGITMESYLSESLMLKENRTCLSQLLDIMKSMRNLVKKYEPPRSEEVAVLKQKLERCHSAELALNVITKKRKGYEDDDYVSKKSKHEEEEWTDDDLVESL
# Sequence (P51948 whole entry partner): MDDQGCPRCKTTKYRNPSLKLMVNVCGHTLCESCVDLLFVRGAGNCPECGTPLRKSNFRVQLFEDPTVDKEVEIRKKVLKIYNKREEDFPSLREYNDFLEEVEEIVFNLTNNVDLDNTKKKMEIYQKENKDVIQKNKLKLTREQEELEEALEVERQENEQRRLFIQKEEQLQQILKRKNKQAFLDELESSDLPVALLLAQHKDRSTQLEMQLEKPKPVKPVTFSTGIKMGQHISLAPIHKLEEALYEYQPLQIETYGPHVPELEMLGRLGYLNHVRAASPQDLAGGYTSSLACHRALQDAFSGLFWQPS
# assay_overview: Radiometric protein kinase assay (33PanQinase Activity Assay), CDK7
# condition_description: ATP 3 μM
measured_property: IC50 (nM)

(a) c1ccc(-c2ccc(CNc3cc(N4CCNC5(CC5)C4)nc4c(C5CC5)cnn34)cc2)nc1
(b) O=C1CC(CNc2cc(NCc3ccc(-c4ccccn4)cc3)n3ncc(C4CC4)c3n2)CCN1 (stereo not shown)
(c) COc1cc(CNc2cc(NC[C@H]3CCNC[C@@H]3O)nc3c(C4CC4)cnn23)ccc1-c1ccccn1
(d) c1ccc(-c2ccc(CNc3cc(O[C@@H]4CCNC4)nc4c(C5CC5)cnn34)cc2)nc1
List by increasing IC50. Response field: labels, in requested order. c, a, d, b

(1) c1ccc(-c2ccc(CNc3cc(NC4CCNCC4)nc4c(C5CC5)cnn34)cc2)nc1
(2) O=C1C[C@H](Nc2cc(NCc3ccc(-c4ccccn4)cc3)n3ncc(C4CC4)c3n2)CN1
(3) c1cnc(-c2ccc(CNc3cc(N[C@H]4CCNC4)nc4c(C5CC5)cnn34)cc2)nc1
Please put the entries in order of rising IC50. Response field: labels, in requested order. 3, 1, 2
(3: 418 nM, 1: 1290 nM, 2: 4720 nM)

----------
# Test system: A673 cells
# assay_overview: Cytotoxicity in A673 cells (Cell Titer Glo viability)
# Format: cell-based
# condition_description: Homo sapiens, A673; read-out: Cellular Potency IC50 (nM) (in A673 cells)
Form field: IC50 (one value per entry).
I only need the number, in nM, no unit after it.

// worked examples, IC50 included
Could you share what IC50 was measured for `Cc1cc(CNc2cc(NC[C@H]3CCNC[C@@H]3O)nc3c(C(C)C)cnn23)ccc1-c1ccccn1` , tested on A673 cells? 69

Could you share what IC50 was measured for `O[C@H]1CNCC[C@@H]1CNc1cc(NCc2ccc(-c3ccccn3)cc2F)n2ncc(Cl)c2n1` , tested on A673 cells? 0.7

Could you share what IC50 was measured for `NC1CN(c2cc(NCc3ccc(-c4ccccn4)cc3)n3ncc(C4CC4)c3n2)C1` , tested on A673 cells? 50.3

Could you share what IC50 was measured for `N#Cc1cnn2c(NCc3ccc(-c4ccccc4)cc3)cc(NC[C@H]3CCNC[C@@H]3O)nc12` , tested on A673 cells? 7.6

Could you share what IC50 was measured for `Cn1cc(-c2ccccn2)nc1CNc1cc(NC[C@H]2CCNC[C@@H]2O)nc2c(C3CC3)cnn12` , tested on A673 cells? 96.4

Alright, here's another compound for you.
Could you share what IC50 was measured for `COc1cc(-c2ccccn2)ccc1CNc1cc(NC[C@H]2CCNC[C@@H]2O)nc2c(C3CC3)cnn12` , tested on A673 cells? 6.2

----------
# system: Human CDK7/CycH/MAT1 (Homo sapiens (Human))
# assay_overview: Radiometric protein kinase assay (33PanQinase Activity Assay), CDK7
# condition_description: ATP 3 μM
measured_property: IC50 (nM)

(A) Fc1cc(-c2ccccn2)ccc1CNc1cc(N[C@H]2CCNC2)nc2c(C3CC3)cnn12 [PPA-072]
(B) O[C@H]1CNCC[C@@H]1CNc1cc(NCc2ccc(-c3ncccn3)cc2F)n2ncc(C3CC3)c2n1 [PPA-067]
(C) O[C@H]1CNCC[C@@H]1CNc1cc(NCc2ccc(-c3ccccn3)cc2F)n2ncc(C3CC3)c2n1 [PPA-020]
Which order do these items fall in when sorted by IC50 from largest to smallest? Response field: labels, in requested order. A, B, C
(A: 1000 nM, B: 562 nM, C: 311 nM)

----------
# system: Human CDK7/CycH/MAT1 (Homo sapiens (Human), UniProt P50613)
# assay_overview: Radiometric protein kinase assay (33PanQinase Activity Assay), CDK7
# condition_description: ATP 3 μM
# Procedure: Additionally for the CDK7 assay: • Human CDK7/CycH/MAT1 (ProQinase, 0366-0360-4—Lot 2). • RBER-CHKtide (ProQinase, 0581-0000-5—Lot 106). A radiometric protein kinase assay (^33PanQinase® Activity Assay) was used for measuring the kinase activity of the two protein kinases (CDK12/CDK7). […] The reaction mixture was incubated at 30° C. for 60 min and then stopped by the addition of 2% (v/v) H3PO4. […] Incorporation of ^33Pi was determined with a microplate scintillation count (Microbeta, Wallac). […]
pIC50: −log10 of the molar value.
measured_property: pIC50

Looking for the measured pIC50 of `O[C@H]1CNCC[C@@H]1CNc1cc(NCc2ccc(-c3ccccc3)cc2F)n2ncc(C3CC3)c2n1` , can you help? 6.04

Looking for the measured pIC50 of `c1ccc(-c2ccc(CNc3cc(O[C@@H]4CCCNC4)nc4c(C5CC5)cnn34)cc2)nc1` , can you help? 5.90

Looking for the measured pIC50 of `CN(c1cc(NCc2ccc(-c3ccccn3)cc2)n2ncc(C3CC3)c2n1)C1CCNCC1` , can you help? 5.68
